molecular target: T1, CD3 on primary human pan T cells (human, UniProt P07766 23-207); assay: flow cytometry, pan T-cells
T1 construct: on cells it stands in the TCR/CD3 complex; also called Pan T-cells (CD3-positive); endogenous CD3
T1 sequence (P07766 23-207 limits assumed): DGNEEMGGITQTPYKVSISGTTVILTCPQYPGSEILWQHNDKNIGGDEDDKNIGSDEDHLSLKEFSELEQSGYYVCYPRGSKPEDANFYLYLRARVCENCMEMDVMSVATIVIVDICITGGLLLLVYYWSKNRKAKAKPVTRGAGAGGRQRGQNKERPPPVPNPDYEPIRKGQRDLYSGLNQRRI
Each entry below carries its recorded % Binding retained on T-cells, 55° C..
assay_endpoint: % Binding retained on T-cells, 55° C. (fraction)

>>> measured_number("CD3B2043 (scFv) scFv: QVQLVQSGAEVKKPGSSVKVSCKASGYTFTRSTMHWVRQAPGQGLEWIGYINPSSAYTNYNQKFQGRVTLTADKSTSTAYMELSSLRSEDTAVYYCASPQVHYDYNGFPYWGQGTLVTVSSGGSEGKSSGSGSESKSTGGSEIVLTQSPATLSASPGERVTLSCSASSSVSYMNWYQQKPGTAPRRLIYDSSKLASGVPARFSGSGSGRDYTLTISSLEPEDFAVYYCQQWSRNPPTFGGGTKVEIK")
0.991
>>> measured_number("CD3B2087 (scFv) scFv: QVQLVQSGAEVKKPGSSVKVSCKASGYTFTRSTMHWVRQAPGQGLEWMGYINPSSAYTNYAQKFQGRVTLTADKSTSTAYMELSSLRSEDTAVYYCASPQVHYDYNGFPYWGQGTLVTVSSGGSEGKSSGSGSESKSTGGSEIVLTQSPATLSASPGERVTLSCSASSSVSYMNWYQQKPGTAPRRLIYDSSKLASGVPARFSGSGSGRDYTLTISSLEPEDFAVYYCQQWSRNPPTFGGGTKVEIK")
1.02
>>> measured_number("CD3B2063 (scFv) scFv: QVQLVQSGAEVKKPGSSVKVSCKASGYTFTRSTMHWVKQAPGQGLEWIGYINPSSAYTNYAQKFQGRVTLTADKSTSTAYMELSSLRSEDTAVYYCASPQVHYDYNGFPYWGQGTLVTVSSGGSEGKSSGSGSESKSTGGSEIVLTQSPATLSASPGERVTLSCSASSSVSYMNWYQQKPGTAPRRLIYDSSKLASGVPARFSGSGSGRDYTLTISSLEPEDFAVYYCQQWSRNPPTFGGGTKVEIK")
1
